- MEASURED ON: human BRD4 bromodomain II (Homo sapiens)
- Construct: human BRD4 bromodomain II [based on Genbank NM_058243, residues 349-460]; host or cells: E. coli
- ASSAY NOTES: Bromodomain binding assay (AlphaScreen), BRD4 BDII
- CONDITION LABEL: AlphaScreen assay, Table C2; read-out: BRD4 BDII IC50
MEASURED ENDPOINT: IC50

Example results:
compound=Cc1ccc(-c2cc(F)cc(-c3ccc(-n4ccn(C)c4=O)c(Cl)c3)c2O)cc1N1CC(O)(CO)C1 meas_value="1 to 10 nM"
compound=CC(=O)Nc1cc(-c2cc(F)cc(-c3ccc(-n4ccn(C)c4=O)c(Cl)c3)c2O)cc(N2CC[C@H](N(C)C)C2)n1 meas_value="1 to 10 nM"
compound=Cn1ccn(-c2ccc(-c3cc(F)cc(-c4cccc(N5CC[C@@](C)(O)C5)c4)c3O)cc2Cl)c1=O meas_value="1 to 10 nM"

May I ask what IC50 has been recorded for O=C1CCCN1c1ccc(-c2cccc(-c3ccncc3)c2O)cc1F ?
10 to 100 nM

----------
In this section we review reported IC50 values for a set of compounds.
- MEASURED ON: human BRD4 bromodomain II (Homo sapiens)
- Construct: human BRD4 bromodomain II [based on Genbank NM_058243, residues 349-460]; host or cells: E. coli
- ASSAY NOTES: Bromodomain binding assay (AlphaScreen), BRD4 BDII
- CONDITION LABEL: AlphaScreen assay, Table C2; read-out: BRD4 BDII IC50

Example results:
compound="CC(=O)Nc1ccc(-c2cccc(-c3cccc(N4CCNCC4)c3)c2O)cc1Cl [Example 171]" meas_value="1 to 10 nM"
compound="CN1CCCC12CCN(c1cc(-c3cc(F)cc(-c4ccc(-n5ccn(C)c5=O)c(Cl)c4)c3O)ccn1)C2 (stereo not shown) [Example 637]" meas_value="0.01 to 1 nM"
compound="CN1CCN(c2ccc(-c3cc(F)cc(-c4ccnc(N5CC6(CNC6)C5)c4)c3O)cc2Cl)C1=O [Example 352]" meas_value="10 to 100 nM"

Shifting focus to the compound that follows.
May I ask what IC50 has been recorded for CN1CCN(c2ccc(-c3cccc(-c4cc(N5CCNCC5)no4)c3O)cc2)C1=O [Example 65, 2,2,2-trifluoroacetate] ?
10 to 100 nM

----------
In this section we review reported pIC50 values for a set of molecules.
- MEASURED ON: human BRD4 bromodomain II (Homo sapiens, UniProt O60885)
- Construct: human BRD4 bromodomain II [based on Genbank NM_058243, residues 349-460]; host or cells: E. coli
- ASSAY NOTES: Bromodomain binding assay (AlphaScreen), BRD4 BDII
- CONDITION LABEL: AlphaScreen assay, Table C2; read-out: BRD4 BDII IC50
pIC50: −log10 of the molar value.

molecule=Cn1cc(-c2cc(F)cc(-c3ccc(-n4ccn(C)c4=O)c(Cl)c3)c2O)cc(N2CCN(C(C)(C)C)CC2)c1=O measured_endpoint=pIC50 meas_value="9.00 to 11.00"
molecule=CN1CCN(c2c(F)cc(-c3cc(F)cc(-c4ccnc(N5CCNCC5)c4)c3O)cc2F)C1=O measured_endpoint=pIC50 meas_value="7.00 to 8.00"
molecule=CSc1ncc(-c2cc(F)cc(-c3ccc(-n4ccn(C)c4=O)c(Cl)c3)c2O)cc1N1CCN(C(C)C)CC1 measured_endpoint=pIC50 meas_value="8.00 to 9.00"
molecule=CC(=O)Nc1ccc(-c2cccc(-c3cc(N4CCNCC4)no3)c2O)cc1OC(C)C measured_endpoint=pIC50 meas_value="7.00 to 8.00"
molecule=Cn1ccn(-c2ccc(-c3cc(F)cc(-c4cnc(C(F)F)c(N5CCN(C(C)(C)C)CC5)c4)c3O)cc2Cl)c1=O measured_endpoint=pIC50 meas_value="9.00 to 11.00"
molecule=O=C1CCCCN1c1ccc(-c2cccc(-c3cccc(N4CCNCC4)c3)c2O)cc1F measured_endpoint=pIC50 meas_value="7.00 to 8.00"

Shifting focus to the molecule that follows.
May I ask what pIC50 has been recorded for Cn1ccn(-c2ccc(-c3cc(F)cc(-c4ccnc(N5CC6CNC6C5)c4)c3O)cc2Cl)c1=O (stereo not shown) ?
9.00 to 11.00

Values were extracted from patent US20250179059A1.
